Taken from ChEMBL document CHEMBL1153576.

Tested on: Staphylococcus aureus
Test: Antibacterial activity against Staphylococcus aureus ATCC 29213 after 16 to 22 hrs by broth microdilution method
Type: functional
Field: MIC. Provide a value for each of the compounds that follow.
Hi, when you answer, please include the unit after the number. Thanks!

Incoming: Could you share which MIC value was measured for CC[C@H]1OC(=O)[C@H](C)[C@@H](O[C@H]2C[C@@](C)(OC)[C@@H](O)[C@H](C)O2)[C@H](C)[C@@H](O[C@@H]2O[C@H](C)C[C@H](N(C)C)[C@H]2O)[C@](C)(O)C[C@@H](C)CN(CCCNC(=S)NCCCc2ccccc2)[C@H](C)[C@@H](O)[C@]1(C)O ?
Outgoing: 0.5 µg/mL

Incoming: What would you report for CC[C@H]1OC(=O)[C@H](C)[C@@H](O[C@H]2C[C@@](C)(OC)[C@@H](O)[C@H](C)O2)[C@H](C)[C@@H](O[C@@H]2O[C@H](C)C[C@H](N(C)C)[C@H]2O)[C@](C)(O)C[C@@H](C)CN(CCCN(CCC#N)C(=O)Nc2cccc3ccccc23)[C@H](C)[C@@H](O)[C@]1(C)O ?
Outgoing: 1 µg/mL

Incoming: Now give it for CC[C@H]1OC(=O)[C@H](C)[C@@H](O[C@H]2C[C@@](C)(OC)[C@@H](O)[C@H](C)O2)[C@H](C)[C@@H](O[C@@H]2O[C@H](C)C[C@H](N(C)C)[C@H]2O)[C@](C)(O)C[C@@H](C)CN(CCCNC(=O)Nc2ccccc2)[C@H](C)[C@@H](O)[C@]1(C)O too.
Outgoing: 0.25 µg/mL

Incoming: Try CC[C@H]1OC(=O)[C@H](C)[C@@H](O[C@H]2C[C@@](C)(OC)[C@@H](O)[C@H](C)O2)[C@H](C)[C@@H](O[C@@H]2O[C@H](C)C[C@H](N(C)C)[C@H]2O)[C@](C)(O)C[C@@H](C)CN(CCCN(CCC#N)C(=O)Nc2ccc3ccccc3c2)[C@H](C)[C@@H](O)[C@]1(C)O next.
Outgoing: 1 µg/mL

Incoming: Repeat for the following compound: CC[C@H]1OC(=O)[C@H](C)[C@@H](O[C@H]2C[C@@](C)(OC)[C@@H](O)[C@H](C)O2)[C@H](C)[C@@H](O[C@@H]2O[C@H](C)C[C@H](N(C)C)[C@H]2O)[C@](C)(O)C[C@@H](C)CN(CCCN(CCC#N)C(=S)NCc2ccccc2)[C@H](C)[C@@H](O)[C@]1(C)O
Outgoing: 1 µg/mL
